Test system: KB
Assay: Cytotoxicity against human KB cells after 72 hrs
Assay type: functional
Condition: read-out: ED50 (the source's name)
Provide the reported EC50 of each item.
One number for each entry, in µg/mL.

Below are worked cases with known answers.
Exercise: Returns the measured EC50 for the input compound. Input: "COC(=O)c1cc(O)c(OC)c(O)c1"
Solution: 8.62

Exercise: Returns the measured EC50 for the input compound. Input: "COc1cc(O)c2c(=O)c(OC)c(-c3cc(O)c(OC)cc3OC)oc2c1"
Solution: 8.61

Exercise: Returns the measured EC50 for the input compound. Input: "COc1cc(O)c2c(=O)c(OC)c(-c3cc(O)c(OC)cc3O)oc2c1"
Solution: 1.99

Exercise: Returns the measured EC50 for the input compound. Input: "COc1cc(-c2oc3cc(OC)c(OC)c(O)c3c(=O)c2OC)ccc1O"
Solution: 7.42

Exercise: Returns the measured EC50 for the input compound. Input: "COc1cc2oc(-c3ccc(O)c(O)c3)c(OC)c(=O)c2c(O)c1OC"
Solution: 13.9

Let's switch to this compound now.
Exercise: Returns the measured EC50 for the input compound. Input: "COc1cc(-c2oc3cc(OC)c(O)c(O)c3c(=O)c2OC)ccc1O"
Solution: 11.2
